Measured values drawn from patent US10308620B2 for this set.

assay: Rodent brain penetration study; type: in vivo; conditions: rat, oral, 3 mg/kg, p.o., male Wistar rats, read-out: Single dose Rat Brain Penetration (Cb/Cp)
# label = met if Kp >= 1 else not met

>>> label("COc1cccc(CN2C=C(C(=O)N[C@H]3CCCC[C@@H]3O)Oc3ccccc32)c1")
"not met"

Incoming: Please tell me: is the compound O=C(N[C@H]1CCCC[C@@H]1O)C1=CN(Cc2ccccc2)c2ccccc2O1 at or over 1 in terms of Kp?
Outgoing: met

Incoming: Is Kp for O=C(N[C@H]1CCCC[C@@H]1O)C1=CN(Cc2cccc(F)c2)c2ccccc2O1 at or above 1?
Outgoing: met

Incoming: Threshold query (Kp >= 1) on O=C(N[C@H]1CCCC[C@@H]1O)C1=CN(Cc2ccc(Cl)nc2)c2ccccc2O1
Outgoing: not met

Incoming: Is it the case that O=C(NC1CCOCC1O)C1=CN(Cc2cccc(F)c2F)c2ccccc2O1 (stereo not shown) has Kp reaching or exceeding 1?
Outgoing: not met

Incoming: # bool: Kp of O=C(N[C@H]1CCCC[C@@H]1O)C1=CN(Cc2cccc(F)c2F)c2ncccc2O1 >= 1
Outgoing: met

Incoming: Given O=C(N[C@H]1CCCC[C@@H]1O)C1=CN(Cc2cccc(F)c2F)c2ccccc2O1 , state whether its Kp is at least 1.
Outgoing: met

---

target: recombinant human Muscarinic M1 receptor (Homo sapiens (Human)); assay: Allosteric potency EC50, CHO cells with pCRE-Luc reporter, in presence of EC20 of acetylcholine; format: cell-based; details: 4 hours
Sequence (P11229 whole entry): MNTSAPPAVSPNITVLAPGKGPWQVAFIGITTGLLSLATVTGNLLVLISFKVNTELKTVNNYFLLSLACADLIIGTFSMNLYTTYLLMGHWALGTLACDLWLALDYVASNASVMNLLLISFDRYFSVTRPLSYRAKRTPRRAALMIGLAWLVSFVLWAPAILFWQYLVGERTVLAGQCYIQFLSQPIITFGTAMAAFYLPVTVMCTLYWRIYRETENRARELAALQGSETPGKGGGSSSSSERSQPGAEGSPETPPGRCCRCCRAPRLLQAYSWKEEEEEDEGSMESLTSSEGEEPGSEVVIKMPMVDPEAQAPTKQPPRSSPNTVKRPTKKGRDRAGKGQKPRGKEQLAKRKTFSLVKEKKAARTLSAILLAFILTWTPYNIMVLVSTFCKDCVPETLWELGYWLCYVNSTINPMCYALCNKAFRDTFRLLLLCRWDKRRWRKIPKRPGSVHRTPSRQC
Measured quantity: pEC50
Numbers only, as −log10 of the molar value.

Kindly give each listed record's pEC50.
1. CC(C)(O)CNC(=O)C1=CN(Cc2cccc(F)c2)c2ccccc2O1 [Example 8]
2. O=C(N[C@H]1CCCC[C@@H]1O)C1=CN(Cc2ccccc2F)c2c(F)ccc(F)c2O1 [Example 61]
3. CC(C)(O)CNC(=O)C1=CN(Cc2ccc(F)cc2)c2ccccc2O1 [Example 14]

Outgoing:
1: 5.54; 2: 6.66; 3: 5.87

---

Experiment: Rodent pharmacokinetic study
Type: in vivo, rat
Conditions: 3 mg/kg oral (gavage), male Wistar rats
Experimental: Rodent Pharmacokinetic Study Male Wistar rats (260±50 grams) were used as experimental animals. Animals were housed individually in polypropylene cage. […] At pre-determined point, blood was collected through jugular vein and replenished with an equivalent volume of normal saline. […] The concentrations of the test compounds were quantified in plasma by qualified LC-MS/MS method using suitable extraction technique. The test compounds were quantified in the calibration range around 1-1000 ng/mL in plasma. […]
Please go through the items and note down their AUC0-t.
Answers are plain numbers, in ng·h/mL.

Would you please look over these solved cases?
>>> observed_result("O=C(N[C@H]1CCCC[C@@H]1O)C1=CN(Cc2cccc(C(F)(F)F)c2)c2ccccc2O1")
467
>>> observed_result("O=C(N[C@H]1CCCC[C@@H]1O)C1=CN(Cc2ccc(F)c(F)c2)c2ccccc2O1")
2490
>>> observed_result("COc1cc(CN2C=C(C(=O)N[C@H]3CCCC[C@@H]3O)Oc3ccccc32)ccn1")
1500

Working through the 5 compounds below one at a time, give AUC0-t for each.
1. O=C(N[C@H]1CCCC[C@@H]1O)C1=CN(Cc2ccncc2)c2ccccc2O1
2. O=C(N[C@H]1CCCC[C@@H]1O)C1=CN(Cc2cccc(F)c2F)c2ccccc2O1
3. O=C(N[C@H]1CCCC[C@@H]1O)C1=CN(Cc2ccccc2)c2ccccc2O1
4. O=C(N[C@H]1CCCC[C@@H]1O)C1=CN(Cc2ccccc2F)c2ccccc2O1
5. O=C(N[C@H]1CCCC[C@@H]1O)C1=CN(Cc2ccccn2)c2ccccc2S1

Outgoing:
437
2070
607
989
255

---

For each of the compounds below, state its bioavailability.
assay: Rodent pharmacokinetic study; type: in vivo, rat; details: rat, plasma; 3 mg/kg oral vs 1 mg/kg i.v., male Wistar rats
Numbers only, in %.

>>> observed_result("COc1cccc(CN2C=C(C(=O)N[C@H]3CCCC[C@@H]3O)Oc3ccccc32)c1")
55

Provide reported bioavailability for each item, in the same order as listed.
1. COc1ccc(CN2C=C(C(=O)N[C@H]3CCCC[C@@H]3O)Oc3ccccc32)cc1
2. O=C(N[C@H]1CCCC[C@@H]1O)C1=CN(Cc2ccccc2)c2ccccc2O1
3. O=C(N[C@H]1CCCC[C@@H]1O)C1=CN(Cc2cccc(C(F)(F)F)c2)c2ccccc2O1

Outgoing:
1: 115; 2: 49; 3: 26

---

test: Rodent brain penetration study; format: in vivo; conditions: rat, oral, 3 mg/kg, p.o., male Wistar rats, read-out: Single dose Rat Brain Penetration (Cb/Cp)
Assignment: determine reported Kp for the given molecules.
Answers are plain numbers.

The following molecules have reported results that may help.
>>> observed_result("O=C(N[C@H]1CCCC[C@@H]1O)C1=CN(Cc2cccc(F)c2)c2cccc(F)c2O1")
1.93
>>> observed_result("O=C(N[C@H]1CCCC[C@@H]1O)C1=CN(Cc2ccncc2)c2ccccc2O1")
0.32
>>> observed_result("O=C(N[C@H]1CCCC[C@@H]1O)C1=CN(Cc2cccc(C(F)(F)F)c2)c2ccccc2O1")
1.92
>>> observed_result("COc1cc(CN2C=C(C(=O)N[C@H]3CCCC[C@@H]3O)Oc3ccccc32)ccn1")
1.44
>>> observed_result("O=C(N[C@H]1CCCC[C@@H]1O)C1=CN(Cc2ccccc2F)c2ccccc2O1")
1.18

Moving on to another molecule below.
Incoming: Entry COc1ccc(CN2C=C(C(=O)N[C@H]3CCCC[C@@H]3O)Oc3ccccc32)cc1 : reported Kp = ?
Outgoing: 0.9

---

Assay: Rodent pharmacokinetic study
Type: in vivo, rat
Conditions: rat, plasma; 3 mg/kg oral vs 1 mg/kg i.v., male Wistar rats
Protocol: Rodent Pharmacokinetic Study Male Wistar rats (260±50 grams) were used as experimental animals. Animals were housed individually in polypropylene cage. […] At pre-determined point, blood was collected through jugular vein and replenished with an equivalent volume of normal saline. […] The concentrations of the test compounds were quantified in plasma by qualified LC-MS/MS method using suitable extraction technique. The test compounds were quantified in the calibration range around 1-1000 ng/mL in plasma. […]
Quick rule for you: bioavailability at 40% or higher means yes (1), lower means no (0).

A selection of reference data follows.
>>> label("O=C(N[C@H]1CCCC[C@@H]1O)C1=CN(Cc2cccc(F)c2)c2cccc(F)c2O1 [Example 51]")
"no (0)"
>>> label("COc1cc(CN2C=C(C(=O)N[C@H]3CCCC[C@@H]3O)Oc3ccccc32)ccn1 [Example 11]")
"yes (1)"
>>> label("O=C(N[C@H]1CCCC[C@@H]1O)C1=CN(Cc2ccccn2)c2ccccc2S1 [Example 92]")
"no (0)"

Incoming: Is bioavailability at least 40%? Consider O=C(N[C@H]1CCCC[C@@H]1O)C1=CN(Cc2ccncc2)c2ccccc2O1 [Example 23]
Outgoing: no (0)

Incoming: Say whether O=C(N[C@H]1CCCC[C@@H]1O)C1=CN(Cc2cccc(F)c2F)c2ncccc2O1 [Example 33] shows bioavailability of 40% or more.
Outgoing: yes (1)
